EXPERIMENTAL_SYSTEM: Human neutrophilic elastase (Homo sapiens)
Sequence (P08246 30-267): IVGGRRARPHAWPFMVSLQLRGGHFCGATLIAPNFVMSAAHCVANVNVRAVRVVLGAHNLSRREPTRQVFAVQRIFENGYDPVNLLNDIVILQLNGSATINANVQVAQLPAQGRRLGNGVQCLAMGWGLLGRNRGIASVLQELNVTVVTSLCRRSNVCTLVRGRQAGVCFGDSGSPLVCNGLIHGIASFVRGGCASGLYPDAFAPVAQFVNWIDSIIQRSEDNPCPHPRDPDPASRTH
PROCEDURE_DETAILS: Human neutrophilic elastase inhibitory activity in vitro (fluorogenic substrate)
ASSAY_CONDITIONS: 37° C., pH 7.5
So I've got a bunch of molecules here, and I need their IC50 values.
Kindly format the answer as number then unit.

input: Fill blank: measured IC50 of the molecule CC(C)[C@H](NC(=O)[C@@H]1CCCN1C(=O)[C@@H](NC(=O)CC(=O)N1CCN(CC(=O)O)C(=O)C1)C(C)C)C(=O)c1nc2ccccc2o1 is ____.
output: 45 nM

input: Fill blank: measured IC50 of the molecule CC(C)[C@H](NC(=O)CN1C(=O)CN(CC(=O)O)C1=O)C(=O)N1CCC[C@H]1C(=O)N[C@H](C(=O)C(F)(F)F)C(C)C is ____.
output: 82 nM
